Entries and their Ki
target: Beta-3 adrenergic receptor (Homo sapiens, UniProt P13945); assay: GPCRScan assay: inhibition of Beta3; set-up: radioligand conc. used [nm] 0.2 – 0.5, parental cells HEK Flp-In
Sequence (P13945 whole entry): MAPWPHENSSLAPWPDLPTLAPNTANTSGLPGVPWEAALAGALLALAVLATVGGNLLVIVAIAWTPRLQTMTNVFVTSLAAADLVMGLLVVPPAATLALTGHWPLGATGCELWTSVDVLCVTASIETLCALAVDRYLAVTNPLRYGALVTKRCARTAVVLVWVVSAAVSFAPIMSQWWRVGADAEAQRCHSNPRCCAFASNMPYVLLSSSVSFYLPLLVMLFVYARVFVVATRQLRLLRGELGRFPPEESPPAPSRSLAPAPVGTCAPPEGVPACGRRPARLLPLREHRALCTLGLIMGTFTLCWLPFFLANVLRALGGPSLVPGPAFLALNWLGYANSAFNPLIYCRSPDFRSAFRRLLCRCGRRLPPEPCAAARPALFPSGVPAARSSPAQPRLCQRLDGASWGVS
Write down the numeric answer in µM and omit the unit.

Cc1c(C(=O)O)cc(-c2ccc(C3CCNCC3)cc2)c2ccc(-c3ccc(C(F)(F)F)cc3)cc12 3.26

Proceeding to the next compound to report its Ki.
Can you look up the measured Ki of `O=C(O)c1cc(-c2ccc(C3CCNCC3)cc2)c2ccc(-c3ccc(C(F)(F)F)cc3)cc2c1` for me?
2.92

###

Target: 5-hydroxytryptamine receptor 1A (Homo sapiens, UniProt P08908)
Sequence (P08908 whole entry): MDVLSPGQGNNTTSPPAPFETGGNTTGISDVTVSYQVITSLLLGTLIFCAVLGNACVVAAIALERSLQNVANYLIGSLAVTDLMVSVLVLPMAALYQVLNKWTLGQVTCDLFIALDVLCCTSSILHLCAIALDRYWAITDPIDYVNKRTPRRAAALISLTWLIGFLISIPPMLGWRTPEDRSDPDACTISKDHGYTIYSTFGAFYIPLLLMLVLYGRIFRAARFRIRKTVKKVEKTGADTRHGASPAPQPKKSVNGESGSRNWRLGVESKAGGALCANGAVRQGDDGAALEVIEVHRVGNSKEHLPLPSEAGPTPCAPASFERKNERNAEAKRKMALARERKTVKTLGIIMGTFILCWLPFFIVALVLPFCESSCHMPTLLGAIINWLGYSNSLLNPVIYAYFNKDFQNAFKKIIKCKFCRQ
REPORTED_METRIC: Ki (µM)
Could you give me the number in µM? Just the number is fine.

Consider the molecule shown here: O=C(O)c1cc(-c2ccc(C3CCNCC3)cc2)c2ccc(-c3ccc(C(F)(F)F)cc3)cc2c1 [PPTN] What is its recorded Ki?
4
